# Tested on: Staphylococcus aureus
# protocol-description: Radial diffusion bactericidal assay, Staphylococcus aureus
# Type: cell-based
# condition-set: radial diffusion; PROBIT analysis; S. aureus
Ends that are not written are not given here.
result-type: pmol added to well to achieve a 30 mm^2 bactericidal zone, S. aureus

>>> measured_result("GWLIQLFHKKIESALRNKMNS [BPI.55]")
"28,204.45 pmol"
>>> measured_result("KSKVGWLIQLFHKKKWKAQKRFLK [BPI.74]")
"4,290.18 pmol"
>>> measured_result("KSKVLWLIQLFHKK [BPI.85]")
"14,677.13 pmol"
>>> measured_result("KSKVGWLIQLFHKK-NH2 (C-terminus assumed) [BPI.13]")
"5,341.27 pmol"
>>> measured_result("KSKVGWLIQLFFKK [BPI.94]")
"9,446.60 pmol"
>>> measured_result("KSKVGWLIQLFHKKKSKVGWLIQLFHKK-NH2 (C-terminus assumed) [BPI.29]")
"15,508.98 pmol"
>>> measured_result("KWKAQKRFLKKSKVGWLIQLFHKK-NH2 (C-terminus assumed) [BPI.30]")
"1,216.37 pmol"
